Target: AChE (Homo sapiens)
Sequence (P22303 32-614): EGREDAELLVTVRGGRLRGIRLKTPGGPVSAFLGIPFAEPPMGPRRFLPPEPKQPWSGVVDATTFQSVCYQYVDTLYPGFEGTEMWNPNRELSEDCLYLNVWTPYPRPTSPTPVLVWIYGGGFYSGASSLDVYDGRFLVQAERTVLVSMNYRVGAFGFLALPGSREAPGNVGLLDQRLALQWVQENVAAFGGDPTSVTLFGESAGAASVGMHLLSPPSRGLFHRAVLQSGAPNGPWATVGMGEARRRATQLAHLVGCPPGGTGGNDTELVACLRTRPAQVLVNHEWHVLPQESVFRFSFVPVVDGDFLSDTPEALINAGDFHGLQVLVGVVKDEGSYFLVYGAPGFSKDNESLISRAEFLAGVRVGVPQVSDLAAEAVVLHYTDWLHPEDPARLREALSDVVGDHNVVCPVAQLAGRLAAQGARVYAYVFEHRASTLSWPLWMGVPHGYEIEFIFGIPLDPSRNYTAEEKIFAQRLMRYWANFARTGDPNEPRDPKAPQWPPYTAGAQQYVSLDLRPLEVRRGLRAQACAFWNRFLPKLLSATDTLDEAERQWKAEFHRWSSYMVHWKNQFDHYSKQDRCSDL
Experiment: In vitro AChE inhibitory activity, Ellman's colorimetric method
Assay type: biochemical
Details: AChE inhibitory potency relative to donepezil hydrochloride (100)
Measured relative potency (%), listed per entry.
Kindly write the number and append the unit.

// worked examples, relative potency (%) included
[[record]]
compound = "COc1ccc(-c2csc(NC3=NC(=O)C(=Cc4ccc(Br)s4)S3)n2)cc1 [Compound 21]"
subject_of_test = "AChE (Homo sapiens)"
recorded_endpoint = "relative potency (%)"
recorded_result = "29.28%"

[[record]]
compound = "COc1ccc(-c2csc(N3C(=O)C(=Cc4ccc(Cl)cc4Cl)SC3=NCc3ccccc3)n2)cc1 [Compound 33]"
subject_of_test = "AChE (Homo sapiens)"
recorded_endpoint = "relative potency (%)"
recorded_result = "29.27%"

[[record]]
compound = "COc1ccc(-c2csc(N3C(=O)CSC3=NCc3ccccc3)n2)cc1 [Compound 31]"
subject_of_test = "AChE (Homo sapiens)"
recorded_endpoint = "relative potency (%)"
recorded_result = "36.08%"

[[record]]
compound = "COc1ccc(-c2csc(NC3=NC(=O)C(=Cc4ccc(OC)c(OC)c4)S3)n2)cc1 [Compound 17]"
subject_of_test = "AChE (Homo sapiens)"
recorded_endpoint = "relative potency (%)"
recorded_result = "31.26%"


Pending compound:
Query: relative potency (%); subject: COc1ccc(-c2csc(NC3=NC(=O)C(=Cc4ccc(Cl)cc4)S3)n2)cc1 [Compound 18] 28.43%

###

Biological target: AChE (Homo sapiens)
Test: In vitro AChE inhibitory activity, Ellman's colorimetric method
Format: biochemical
Conditions: in vitro AChE inhibition; mean ± standard error of the mean of three experiments
recorded_endpoint: pIC50
Keep in mind that pIC50 stands for -log10 of concentration in molar terms.

// worked examples, pIC50 included
[[record]]
compound = "COc1ccc(-c2csc(NC3=NC(=O)C(=Cc4ccc(Cl)cc4Cl)S3)n2)cc1 [Compound 19]"
subject_of_test = "AChE (Homo sapiens)"
recorded_result = 6.14

[[record]]
compound = "Cc1ccc(-c2csc(NC3=NC(=O)C(=Cc4ccc(Br)s4)S3)n2)cc1 [Compound 14]"
subject_of_test = "AChE (Homo sapiens)"
recorded_result = 6.42

[[record]]
compound = "COc1ccc(-c2csc(NC3=NC(=O)C(=Cc4ccc(C)cc4)S3)n2)cc1 [Compound 15]"
subject_of_test = "AChE (Homo sapiens)"
recorded_result = 6.43

[[record]]
compound = "COc1ccc(-c2csc(NC3=NC(=O)C(=Cc4ccc(Br)s4)S3)n2)cc1 [Compound 21]"
subject_of_test = "AChE (Homo sapiens)"
recorded_result = 6.73

[[record]]
compound = "Cc1ccc(-c2csc(NC3=NC(=O)C(=Cc4ccc(Cl)cc4Cl)S3)n2)cc1 [Compound 12]"
subject_of_test = "AChE (Homo sapiens)"
recorded_result = 6.47


Query: pIC50; subject: COc1ccc(-c2csc(NC3=NC(=O)C(=Cc4ccc(OC)c(OC)c4)S3)n2)cc1 [Compound 17] 6.75

Query: pIC50; subject: COc1ccc(-c2csc(NC3=NC(=O)C(=Cc4cccs4)S3)n2)cc1 [Compound 20] 6.59

Query: pIC50; subject: Cc1ccc(C=C2SC(Nc3nc(-c4ccc(C)cc4)cs3)=NC2=O)cc1 [Compound 8] 6.30

Query: pIC50; subject: COc1ccc(-c2csc(NC3=NC(=O)C(=Cc4ccc(Cl)cc4)S3)n2)cc1 [Compound 18] 6.71
